The reported numbers originate from the supplement of paper PMC11316812.

test system: MCF7; assay: percentage of EdU-negative (G0-arrested) nuclei per well, 72 h; higher = more G0 arrest; settings: protein concentration 0.225 µM; reference: sequence is the full UniProt precursor, the tested protein was the secreted form or ectodomain;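 also: secreted proteins added to cultured cells, EdU pulse at the end, nuclei found by Hoechst imaging, EdU status from nuclear versus surrounding ring intensity ratio, PBS as neutral control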
Task for the reader: assign each of the following sequences its reported percentage of EdU-negative.
Give bare numbers, in %.

For orientation, consider the following solved cases.
INSERT INTO assay_data (sequence, observed) VALUES
  ('MMLRVLVGAVLPAMLLAAPPPINKLALFPDKSAWCEAKNITQIVGHSGCEAKSIQNRACLGQCFSYSVPNTFPQSTESLVHCDSCMPAQSMWEIVTLECPGHEEVPRVDKLVEKILHCSCQACGKEPSHEGLSVYVQGEDGPGSQPGTHPHPHPHPHPGGQTPEPEDPPGAPHTEEEGAED', 24.7),
  ('MEIPVPVQPSWLRRASAPLPGLSAPGRLFDQRFGEGLLEAELAALCPTTLAPYYLRAPSVALPVAQVPTDPGHFSVLLDVKHFSPEEIAVKVVGEHVEVHARHEERPDEHGFVAREFHRRYRLPPGVDPAAVTSALSPEGVLSIQAAPASAQAPPPAAAK', 25.6),
  ('MALRVVRSVRALLCTLRAVPSPAAPCPPRPWQLGVGAVRTLRTGPALLSVRKFTEKHEWVTTENGIGTVGISNFAQEALGDVVYCSLPEVGTKLNKQDEFGALESVKAASELYSPLSGEVTEINEALAENPGLVNKSCYEDGWLIKMTLSNPSELDELMSEEAYEKYIKSIEE', 26.3),
  ('MAQHHLWILLLCLQTWPEAAGKDSEIFTVNGILGESVTFPVNIQEPRQVKIIAWTSKTSVAYVTPGDSETAPVVTVTHRNYYERIHALGPNYNLVISDLRMEDAGDYKADINTQADPYTTTKRYNLQIYRRLGKPKITQSLMASVNSTCNVTLTCSVEKEEKNVTYNWSPLGEEGNVLQIFQTPEDQELTYTCTAQNPVSNNSDSISARQLCADIAMGFRTHHTGLLSVLAMFFLLVLILSSVFLFRLFKRRQGRIFPEGSCLNTFTKNPYAASKKTIYTYIMASRNTQPAESRIYDEILQSKVLPSKEEPVNTVYSEVQFADKMGKASTQDSKPPGTSSYEIVI [Q9UIB8]', 26.8),
  ('MARGGRGRRLGLALGLLLALVLAPRVLRAKPTVRKERVVRPDSELGERPPEDNQSFQYDHEAFLGKEDSKTFDQLTPDESKERLGKIVDRIDNDGDGFVTTEELKTWIKRVQKRYIFDNVAKVWKDYDRDKDDKISWEEYKQATYGYYLGNPAEFHDSSDHHTFKKMLPRDERRFKAADLNGDLTATREEFTAFLHPEEFEHMKEIVVLETLEDIDKNGDGFVDQDEYIADMFSHEENGPEPDWVLSEREQFNEFRDLNKDGKLDKDEIRHWILPQDYDHAQAEARHLVYESDKNKDEKLTKEEILENWNMFVGSQATNYGEDLTKNHDEL', 25.5);

Let us move to another entry and its percentage of EdU-negative.
input: Provide only the value of recorded percentage of EdU-negative for MGLEKPQSKLEGGMHPQLIPSVIAVVFILLLSVCFIASCLVTHHNFSRCKRGTGVHKLEHHAKLKCIKEKSELKSAEGSTWNCCPIDWRAFQSNCYFPLTDNKTWAESERNCSGMGAHLMTISTEAEQNFIIQFLDRRLSYFLGLRDENAKGQWRWVDQTPFNPRRVFWHKNEPDNSQGENCVVLVYNQDKWAWNDVPCNFEASRICKIPGTTLN [Q8WXI8]
output: 25.2
